Every entry's value here was drawn from patent US20250313572A1.

Molecular target: GST-MCL-1 (Homo sapiens, UniProt Q07820)
Sequence (Q07820 whole entry): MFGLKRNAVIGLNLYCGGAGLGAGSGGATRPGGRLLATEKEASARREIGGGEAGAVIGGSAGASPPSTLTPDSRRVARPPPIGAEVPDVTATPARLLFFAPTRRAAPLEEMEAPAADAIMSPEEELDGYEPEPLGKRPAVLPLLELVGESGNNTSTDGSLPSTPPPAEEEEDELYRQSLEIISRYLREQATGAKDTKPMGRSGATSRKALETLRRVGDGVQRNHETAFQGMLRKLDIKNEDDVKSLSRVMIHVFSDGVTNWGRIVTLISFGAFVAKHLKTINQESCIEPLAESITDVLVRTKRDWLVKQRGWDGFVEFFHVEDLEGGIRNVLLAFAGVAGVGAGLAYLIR
Assay: TR-FRET MCL-1 binding assay (competition with probe F-Bak)
Conditions: without HS; read-out: MCL-1 Binding Ki
TEST READOUT: Ki (nM)

1. CO[C@H]1O[C@H](COc2cccc(-c3nccc(COc4ccc5cc4C[C@H](C(=O)O)Oc4ncnc6sc(-c7ccc(F)cc7)c(c46)-c4ccc(c(Cl)c4C)O[C@H](CN4CCN(C)CC4)CO5)n3)c2)[C@@H](OC)[C@H](OC)[C@@H]1OC [Example 7] ... 0.054
2. Cc1c(Cl)c2c(Cl)c(C)c1-c1c(-c3ccc(F)cc3)sc3ncnc(c13)O[C@@H](C(=O)O)Cc1cc(ccc1OCc1ccnc(N3CC4(C3)CC(F)(F)C4)n1)OC[C@@H](CN1CCN(C)CC1)O2 [Example 48] ... 0.644
3. COCCOCCOCCOCCOCCOCCO[C@H]1CC[C@H](c2nccc(COc3ccc4cc3C[C@H](C(=O)O)Oc3ncnc5sc(-c6ccc(F)cc6)c(c35)-c3c(C)c(Cl)c(c(Cl)c3C)O[C@H](CN3CCN(C)CC3)CO4)n2)CC1 [Example 67] ... 0.016
4. Cc1c2ccc(c1Cl)O[C@H](CN1CCN(C)CC1)COc1ccc(OCc3ccnc(-c4ccc(CCC(=O)O)cc4)n3)c(c1)C[C@H](C(=O)O)Oc1ncnc3sc(-c4ccc(F)cc4)c-2c13 (atropisomer, axis not shown) [Example 17] ... 0.015
